target: Histone deacetylase 2 (Homo sapiens)
Sequence (Q92769 whole entry): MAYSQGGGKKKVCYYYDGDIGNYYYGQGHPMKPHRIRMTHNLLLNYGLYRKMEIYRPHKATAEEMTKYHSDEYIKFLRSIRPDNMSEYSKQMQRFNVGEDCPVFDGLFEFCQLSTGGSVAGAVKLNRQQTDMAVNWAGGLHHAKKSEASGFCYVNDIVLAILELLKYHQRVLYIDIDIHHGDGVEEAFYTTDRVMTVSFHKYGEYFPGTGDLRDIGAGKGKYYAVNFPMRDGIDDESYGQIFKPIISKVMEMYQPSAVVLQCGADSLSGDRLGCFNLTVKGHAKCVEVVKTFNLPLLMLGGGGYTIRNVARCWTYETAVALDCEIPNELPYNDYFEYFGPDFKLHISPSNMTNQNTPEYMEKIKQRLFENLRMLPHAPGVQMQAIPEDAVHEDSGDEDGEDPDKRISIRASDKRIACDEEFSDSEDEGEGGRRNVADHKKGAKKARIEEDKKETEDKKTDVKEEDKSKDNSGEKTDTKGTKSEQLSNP
METRIC: IC50 (µM)

[[record]]
compound_string = "COc1ccccc1CN1C(=O)C2=C(CCN(Cc3ccc(C(=O)Nc4ccccc4N)cc3)C2)N2CCN=C12"
uom = "µM"
recorded_measurement = 0.346


====

Form field: IC50 (one value per entry).
molecular target: Histone deacetylase 1 (Homo sapiens)
Sequence (Q13547 whole entry): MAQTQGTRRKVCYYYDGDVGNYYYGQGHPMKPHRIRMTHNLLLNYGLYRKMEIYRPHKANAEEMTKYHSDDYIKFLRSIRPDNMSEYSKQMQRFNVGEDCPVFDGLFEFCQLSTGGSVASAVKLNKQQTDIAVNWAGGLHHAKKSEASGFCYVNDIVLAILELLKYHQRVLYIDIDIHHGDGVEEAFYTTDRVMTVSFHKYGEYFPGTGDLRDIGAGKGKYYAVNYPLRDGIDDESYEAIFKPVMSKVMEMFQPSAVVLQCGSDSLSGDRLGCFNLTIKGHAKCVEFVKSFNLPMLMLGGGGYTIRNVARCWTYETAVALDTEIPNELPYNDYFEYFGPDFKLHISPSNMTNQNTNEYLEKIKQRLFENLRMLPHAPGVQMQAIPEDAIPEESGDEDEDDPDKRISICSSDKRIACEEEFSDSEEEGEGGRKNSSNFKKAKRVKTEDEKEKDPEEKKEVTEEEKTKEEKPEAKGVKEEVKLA
METRIC: IC50

[[record]]
compound_string = "Nc1ccccc1NC(=O)c1ccc(CN2C(=O)C(CCCc3ccccc3)=C(O)N3CCN=C23)cc1"
recorded_measurement = "600 nM"

[[record]]
compound_string = "NC1=C(CCCc2ccccc2)C(=O)N(Cc2ccc(C(=O)Nc3ccc(F)cc3N)cc2)C2=NCCN21"
recorded_measurement = "413 nM"

[[record]]
compound_string = "NC1=C(CCCc2ccccc2)C(=O)N(Cc2ccc(C(=O)Nc3ccccc3N)cc2)C2=NCCN21"
recorded_measurement = "66.9 nM"

[[record]]
compound_string = "N#Cc1ccc(CN2C(=O)C3=C(CCN(Cc4ccc(C(=O)Nc5ccccc5N)cc4)C3)N3CCN=C23)cc1"
recorded_measurement = "174 nM"

[[record]]
compound_string = "Nc1ccccc1NC(=O)c1ccc(CN2C(=O)C3=C(CCN(Cc4ccccc4)C3)N3CCN=C23)cc1"
recorded_measurement = "198 nM"

[[record]]
compound_string = "Cc1ccc(/C=C/C(=O)N2CCC3=C(C2)C(=O)N(Cc2ccc(C(=O)Nc4ccccc4N)cc2)C2=NCCN23)o1"
recorded_measurement = "377 nM"

[[record]]
compound_string = "COc1ccccc1CN1C(=O)C2=C(CCN(Cc3ccc(C(=O)Nc4ccccc4N)cc3)C2)N2CCN=C12"
recorded_measurement = "156 nM"


Hey, just so you know, these numbers are from ChEMBL document CHEMBL5137036.
